Heads up, these compounds all have pIC50 values measured for UniProtKB P30613.
Sequence (P30613 whole entry): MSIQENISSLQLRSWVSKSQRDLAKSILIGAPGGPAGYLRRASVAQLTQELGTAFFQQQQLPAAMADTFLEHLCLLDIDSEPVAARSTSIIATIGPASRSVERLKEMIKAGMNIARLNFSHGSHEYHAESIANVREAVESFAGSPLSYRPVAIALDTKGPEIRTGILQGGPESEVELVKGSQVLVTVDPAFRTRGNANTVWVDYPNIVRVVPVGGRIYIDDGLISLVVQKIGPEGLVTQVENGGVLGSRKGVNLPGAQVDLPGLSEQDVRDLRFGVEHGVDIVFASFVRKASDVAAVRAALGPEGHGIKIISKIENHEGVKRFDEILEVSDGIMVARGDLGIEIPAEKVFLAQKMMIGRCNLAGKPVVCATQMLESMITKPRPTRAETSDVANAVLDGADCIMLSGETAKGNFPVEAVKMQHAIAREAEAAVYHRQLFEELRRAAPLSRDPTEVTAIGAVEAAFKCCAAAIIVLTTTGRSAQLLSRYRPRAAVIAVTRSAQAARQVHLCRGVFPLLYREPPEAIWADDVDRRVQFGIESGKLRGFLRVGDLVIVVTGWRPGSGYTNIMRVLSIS
One number for each entry, as −log10 of the molar value.

[[record]]
itemsmiles = "O=c1oc2c(O)c(O)ccc2c2cc(O)c(O)cc12"
result = 5.90


Look up and report pIC50, with UniProtKB P30613 as system, for Oc1cc(O)c2cc(O)c(-c3ccc(O)c(O)c3)[o+]c2c1
5.13

----------
- testedTarget: PKM1 (Homo sapiens)
- Sequence (P14618 1-531 isoform P14618-2): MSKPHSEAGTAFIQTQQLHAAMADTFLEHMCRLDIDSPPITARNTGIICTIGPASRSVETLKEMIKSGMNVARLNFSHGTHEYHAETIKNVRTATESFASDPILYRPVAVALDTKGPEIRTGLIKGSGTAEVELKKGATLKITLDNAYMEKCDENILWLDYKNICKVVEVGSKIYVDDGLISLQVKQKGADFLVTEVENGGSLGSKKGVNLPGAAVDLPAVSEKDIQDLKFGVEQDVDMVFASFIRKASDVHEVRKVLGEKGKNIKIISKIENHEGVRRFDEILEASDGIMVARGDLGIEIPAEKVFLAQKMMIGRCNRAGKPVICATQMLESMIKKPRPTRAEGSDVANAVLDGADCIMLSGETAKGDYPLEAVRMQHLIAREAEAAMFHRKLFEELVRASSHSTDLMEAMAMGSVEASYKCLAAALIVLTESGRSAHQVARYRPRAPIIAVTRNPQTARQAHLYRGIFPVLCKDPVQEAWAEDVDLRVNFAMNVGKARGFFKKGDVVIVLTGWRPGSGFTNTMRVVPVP
measuredEndpoint: IC50 (µM)
One number for each entry, in µM.

Could you please provide reported IC50 for O=c1oc2c(O)c(O)ccc2c2cc(O)c(O)cc12 ? Thanks!
36
